Values were extracted from patent US20250345277A1.

Exercise: state measured Positive Rate (EGFP) for each of the compounds provided.
Tested on: PBMC cells
Experiment: In vitro transfection of PBMC cells with EGFP mRNA LNP preparation (flow cytometry)
Assay type: cell-based
Settings: PBMCs, LNP preparation added with ApoE4
Give bare numbers, in %.

Record excerpt, results attached:
>  <COMPOUND>
CCCCCCCCCCCCC(O)CN(CCOCCOCCOCCN(CCOCCOCCOCCN(CC(O)CCCCCCCCCCCC)CC(O)CCCCCCCCCCCC)CCN1CCN(C)CC1)CC(O)CCCCCCCCCCCC (stereo not drawn)

>  <READING UNIT>
%

>  <Positive Rate (EGFP)>
62.10

$$$$
>  <COMPOUND>
CCCCCCCCCCCCCCCCC(O)CC(CCOCCOCCOCCN(CCOCCOCCOCCN(CC(O)CCCCCCCCCCCCCCCC)CC(O)CCCCCCCCCCCCCCCC)CCN1CCN(CCOCCOCCOCCN(CC(O)CCCCCCCCCCCCCCCC)CC(O)CCCCCCCCCCCCCCCC)CC1)CC(O)CCCCCCCCCCCCCCCC (stereo not drawn)

>  <READING UNIT>
%

>  <Positive Rate (EGFP)>
64.40

$$$$

Kindly consider the entry below.
Q: Give the reported value of Positive Rate (EGFP) for this record: CCCCCCCCCCC(O)CN(CCOCCOCCOCCN(CCOCCOCCOCCN(CC(O)CCCCCCCCCC)CC(O)CCCCCCCCCC)CCN1CCN(CCOCCOCCOCCN(CC(O)CCCCCCCCCC)CC(O)CCCCCCCCCC)CC1)CC(O)CCCCCCCCCC (stereo not drawn)
Result: 65.60

====

Exercise: state measured PDI for each of the compounds provided.
Assay: Size and polydispersity index PDI of lipid nanoparticles (Malvern Zetasizer Nano ZS)
Type: physicochemical
Conditions: LNP ionizable lipid/DOPE/cholesterol/DSPE-PEG2000 35/16/46.5/2.5 mol% encapsulating EGFP mRNA
One number for each entry.

Go through the items and report each one's PDI.
1. CCCCCCCCCCC(O)CN(CCN1CCN(CCN(CCN(CC(O)CCCCCCCCCC)CC(O)CCCCCCCCCC)CCN(CC(O)CCCCCCCCCC)CC(O)CCCCCCCCCC)CC1)CC(O)CCCCCCCCCC (centres unmarked)
2. CCCCCCCCCCCCC(O)CN(CCOCCOCCOCCN(CCOCCOCCOCCN(CC(O)CCCCCCCCCCCC)CC(O)CCCCCCCCCCCC)CCN1CCN(C)CC1)CC(O)CCCCCCCCCCCC (centres unmarked)
3. CCCCCCCCCCC(O)CN(CCN(CCN1CCN(C)CC1)CCN(CC(O)CCCCCCCCCC)CC(O)CCCCCCCCCC)CC(O)CCCCCCCCCC (centres unmarked)
4. CCCCCCCCCCC(O)CN(CCOCCOCCOCCN(CCOCCOCCOCCN(CC(O)CCCCCCCCCC)CC(O)CCCCCCCCCC)CCN1CCN(CCO)CC1)CC(O)CCCCCCCCCC (centres unmarked)
5. CCCCCCCCCCCCC(O)CN(CCN1CCN(CCN(CCN(CC(O)CCCCCCCCCCCC)CC(O)CCCCCCCCCCCC)CCN(CC(O)CCCCCCCCCCCC)CC(O)CCCCCCCCCCCC)CC1)CC(O)CCCCCCCCCCCC (centres unmarked)

Result:
1. 0.173
2. 0.099
3. 0.133
4. 0.181
5. 0.107

====

Experiment: Size and polydispersity index PDI of lipid nanoparticles (Malvern Zetasizer Nano ZS)
Type: physicochemical
Settings: LNP ionizable lipid/DOPE/cholesterol/DSPE-PEG2000 35/16/46.5/2.5 mol% encapsulating EGFP mRNA
MEASUREMENT NAME: PDI
Numbers only.

Record excerpt, results attached:
>  <COMPOUND>
CCCCCCCCCCC(O)CN(CCOCCOCCOCCN(CCOCCOCCOCCN(CC(O)CCCCCCCCCC)CC(O)CCCCCCCCCC)CCN1CCN(CCOCCOCCOCCN(CC(O)CCCCCCCCCC)CC(O)CCCCCCCCCC)CC1)CC(O)CCCCCCCCCC [D-C12]

>  <PDI>
0.073

$$$$
>  <COMPOUND>
CCCCCCCCCCCCC(O)CN(CCOCCOCCOCCN(CCOCCOCCOCCN(CC(O)CCCCCCCCCCCC)CC(O)CCCCCCCCCCCC)CCN1CCN(CCOCCOCCOCCN(CC(O)CCCCCCCCCCCC)CC(O)CCCCCCCCCCCC)CC1)CC(O)CCCCCCCCCCCC [D-C14]

>  <PDI>
0.168

$$$$
>  <COMPOUND>
CCCCCCCCCCCCCCC(O)CN(CCOCCOCCN(CCOCCOCCN(CC(O)CCCCCCCCCCCCCC)CC(O)CCCCCCCCCCCCCC)CCN1CCN(CCO)CC1)CC(O)CCCCCCCCCCCCCC (stereo not shown) [K-C16]

>  <PDI>
0.185

$$$$
>  <COMPOUND>
CCCCCCCCCCCCC(O)CN(CCN(CCN1CCN(CCO)CC1)CCN(CC(O)CCCCCCCCCCCC)CC(O)CCCCCCCCCCCC)CC(O)CCCCCCCCCCCC (stereo not shown) [I-C14]

>  <PDI>
0.180

$$$$
>  <COMPOUND>
CCCCCCCCCCCCCCCCC(O)CN(CCOCCN(CCOCCN(CC(O)CCCCCCCCCCCCCCCC)CC(O)CCCCCCCCCCCCCCCC)CCN1CCN(C)CC1)CC(O)CCCCCCCCCCCCCCCC (stereo not shown) [F-C18]

>  <PDI>
0.081

$$$$

Go through the items and report each one's PDI.
1. CCCCCCCCCCCCCCCCC(O)CC(CCOCCOCCOCCN(CCOCCOCCOCCN(CC(O)CCCCCCCCCCCCCCCC)CC(O)CCCCCCCCCCCCCCCC)CCN1CCN(CCOCCOCCOCCN(CC(O)CCCCCCCCCCCCCCCC)CC(O)CCCCCCCCCCCCCCCC)CC1)CC(O)CCCCCCCCCCCCCCCC [D-C18]
2. CCCCCCCCCCCCC(O)CN(CCOCCOCCN(CCOCCOCCN(CC(O)CCCCCCCCCCCC)CC(O)CCCCCCCCCCCC)CCN1CCN(CCO)CC1)CC(O)CCCCCCCCCCCC (stereo not shown) [K-C14]
3. CCCCCCCCCCCCC(O)CN(CCOCCOCCOCCN(CCOCCOCCOCCN(CC(O)CCCCCCCCCCCC)CC(O)CCCCCCCCCCCC)CCN1CCN(CCO)CC1)CC(O)CCCCCCCCCCCC [L-C14]
4. CCCCCCCCCCC(O)CN(CCOCCN(CCOCCN(CC(O)CCCCCCCCCC)CC(O)CCCCCCCCCC)CCN1CCN(C)CC1)CC(O)CCCCCCCCCC (stereo not shown) [F-C12]
5. CCCCCCCCCCCCCCCCC(O)CN(CCOCCOCCN(CCOCCOCCN(CC(O)CCCCCCCCCCCCCCCC)CC(O)CCCCCCCCCCCCCCCC)CCN1CCN(C)CC1)CC(O)CCCCCCCCCCCCCCCC (stereo not shown) [G-C18]

Result:
1. 0.105
2. 0.155
3. 0.126
4. 0.133
5. 0.195

====

Exercise: state measured PDI for each of the compounds provided.
Test: Size and polydispersity index PDI of lipid nanoparticles (Malvern Zetasizer Nano ZS)
Type: physicochemical
Settings: LNP ionizable lipid/DOPE/cholesterol/DSPE-PEG2000 35/16/46.5/2.5 mol% encapsulating EGFP mRNA
Answers are plain numbers.

>  <COMPOUND>
CCCCCCCCCCCCCCC(O)CN(CCN(CCN1CCN(C)CC1)CCN(CC(O)CCCCCCCCCCCCCC)CC(O)CCCCCCCCCCCCCC)CC(O)CCCCCCCCCCCCCC (centres unmarked) [E-C16]

>  <MEASUREMENT NAME>
PDI

>  <QUANTITATIVE READOUT>
0.107

$$$$

Go through the items and report each one's PDI.
1. CCCCCCCCCCCCC(O)CN(CCN(CCN1CCN(C)CC1)CCN(CC(O)CCCCCCCCCCCC)CC(O)CCCCCCCCCCCC)CC(O)CCCCCCCCCCCC (centres unmarked) [E-C14]
2. CCCCCCCCCCCCCCC(O)CN(CCOCCN(CCOCCN(CC(O)CCCCCCCCCCCCCC)CC(O)CCCCCCCCCCCCCC)CCN1CCN(C)CC1)CC(O)CCCCCCCCCCCCCC (centres unmarked) [F-C16]
3. CCCCCCCCCCCCC(O)CN(CCOCCN(CCOCCN(CC(O)CCCCCCCCCCCC)CC(O)CCCCCCCCCCCC)CCN1CCN(CCO)CC1)CC(O)CCCCCCCCCCCC (centres unmarked) [J-C14]
4. CCCCCCCCCCCCCCCCC(O)CN(CCN(CCN1CCN(CCO)CC1)CCN(CC(O)CCCCCCCCCCCCCCCC)CC(O)CCCCCCCCCCCCCCCC)CC(O)CCCCCCCCCCCCCCCC (centres unmarked) [I-C18]
5. CCCCCCCCCCCCCCC(O)CN(CCOCCOCCN(CCOCCOCCN(CC(O)CCCCCCCCCCCCCC)CC(O)CCCCCCCCCCCCCC)CCN1CCN(C)CC1)CC(O)CCCCCCCCCCCCCC (centres unmarked) [G-C16]

Result:
0.119
0.099
0.121
0.109
0.102
